# assay name: Particle size distribution and specific surface area (LS 200, Small Volume Module, Fraunhofer optical model)
# Type: physicochemical
# cond: Particle Diameter (Lower) 57.77 μm
Here the recorded Cum. < Volume % is given for each entry.
Number plus unit, in that order.

Here's what some known entries look like.
O=C(O)CCNC(=O)c1ccc(/N=N/c2ccc(O)c(C(=O)O)c2)cc1 [Feed Powder Sample B (#41.$02)] | 89.5%
O=C([O-])CCNC(=O)c1ccc(/N=N/c2ccc(O)c(C(=O)[O-])c2)cc1.[Na+].[Na+] [Sample 2] | 100%
O=C(O)CCNC(=O)c1ccc(/N=N/c2ccc(O)c(C(=O)O)c2)cc1 [Feed Powder Sample C (#53.$02)] | 99.99%
O=C(O)CCNC(=O)c1ccc(/N=N/c2ccc(O)c(C(=O)O)c2)cc1 [Feed Powder Sample A (#35.$01)] | 99.3%
O=C([O-])CCNC(=O)c1ccc(/N=N/c2ccc(O)c(C(=O)[O-])c2)cc1.[Na+].[Na+] [Sample 1] | 100%
O=C([O-])CCNC(=O)c1ccc(/N=N/c2ccc(O)c(C(=O)[O-])c2)cc1.[Na+].[Na+] [Sample 3] | 99.997%

Proceeding to the next molecule to report its Cum. < Volume %.
Endpoint output: Cum. < Volume % of O=C([O-])CCNC(=O)c1ccc(/N=N/c2ccc(O)c(C(=O)[O-])c2)cc1.[Na+].[Na+] [Sample 4] . Value?
95.3%

* * *

# assay name: Particle size distribution and specific surface area (LS 200, Small Volume Module, Fraunhofer optical model)
# Assay type: physicochemical
# cond: Particle Diameter (Lower) 3.519 μm
parameter measured: Diff. Volume % (%)
Reply numerically in %, unit not repeated.

O=C(O)CCNC(=O)c1ccc(/N=N/c2ccc(O)c(C(=O)O)c2)cc1 [Feed Powder Sample C (#53.$02)] | 20.6
O=C([O-])CCNC(=O)c1ccc(/N=N/c2ccc(O)c(C(=O)[O-])c2)cc1.[Na+].[Na+] [Sample 1] | 22.8
O=C(O)CCNC(=O)c1ccc(/N=N/c2ccc(O)c(C(=O)O)c2)cc1 [Feed Powder Sample A (#35.$01)] | 18.4
O=C([O-])CCNC(=O)c1ccc(/N=N/c2ccc(O)c(C(=O)[O-])c2)cc1.[Na+].[Na+] [Sample 3] | 20.4
O=C([O-])CCNC(=O)c1ccc(/N=N/c2ccc(O)c(C(=O)[O-])c2)cc1.[Na+].[Na+] [Sample 2] | 24.3

Quick check: Diff. Volume % of O=C([O-])CCNC(=O)c1ccc(/N=N/c2ccc(O)c(C(=O)[O-])c2)cc1.[Na+].[Na+] [Sample 4] ?
8.23

What measured Diff. Volume % goes with O=C(O)CCNC(=O)c1ccc(/N=N/c2ccc(O)c(C(=O)O)c2)cc1 [Feed Powder Sample B (#41.$02)] ?
6.98

* * *

Listed here: items and their measured Diff. Volume %.
# assay name: Particle size distribution and specific surface area (LS 200, Small Volume Module, Fraunhofer optical model)
# Type: physicochemical
# cond: Particle Diameter (Lower) 1.149 μm
Hi! Could you send only the number? It should be in %, unit omitted.

The cases that follow already have their Diff. Volume % on record.
O=C([O-])CCNC(=O)c1ccc(/N=N/c2ccc(O)c(C(=O)[O-])c2)cc1.[Na+].[Na+] [Sample 1] | 8.50
O=C(O)CCNC(=O)c1ccc(/N=N/c2ccc(O)c(C(=O)O)c2)cc1 [Feed Powder Sample C (#53.$02)] | 6.03
O=C([O-])CCNC(=O)c1ccc(/N=N/c2ccc(O)c(C(=O)[O-])c2)cc1.[Na+].[Na+] [Sample 3] | 6.97

Value lookup for Diff. Volume %; key = O=C([O-])CCNC(=O)c1ccc(/N=N/c2ccc(O)c(C(=O)[O-])c2)cc1.[Na+].[Na+] [Sample 4]
2.46
